The measurements presented in this section are drawn from ChEMBL document CHEMBL1148785.

Test system: Plasmodium falciparum
assay_explanation: Antimalarial activity against Plasmodium falciparum K1
Type: functional
experimental_context: Plasmodium falciparum, K1; read-out: ED50 (the source's name)
Reported values of log10 EC50 for individual entries
The common logarithm of EC50 in nM is what is listed.

Known results for compounds:
[[record]]
compound = "C=C(C)CN(C1Cc2cc(-c3ccccc3)ccc2N(Cc2cn(C)cn2)C1)S(=O)(=O)c1cn(C)cn1 (configuration not stated)"
recorded_metric = "log10 EC50"
value_reported = 2.68

[[record]]
compound = "Cn1cncc1CN1CC(N(Cc2ccc(C(F)(F)F)o2)S(=O)(=O)c2ccccn2)Cc2cc(C#N)ccc21 (configuration not stated)"
recorded_metric = "log10 EC50"
value_reported = 2.84

[[record]]
compound = "Cn1cncc1CN1CC(N(Cc2ccccc2F)C(=O)C2CC2)Cc2cc(C#N)ccc21 (configuration not stated)"
recorded_metric = "log10 EC50"
value_reported = 3.30

[[record]]
compound = "COC(=O)N1CCC(CN(C2Cc3cc(C#N)ccc3N(Cc3cncn3C)C2)S(=O)(=O)c2ccccc2)CC1 (configuration not stated)"
recorded_metric = "log10 EC50"
value_reported = 1.85

[[record]]
compound = "CCOC(=O)N1CCC(CN(C2Cc3cc(C#N)ccc3N(Cc3cncn3C)C2)S(=O)(=O)c2cn(C)cn2)CC1 (configuration not stated)"
recorded_metric = "log10 EC50"
value_reported = 0.85

[[record]]
compound = "Cn1cnc(CN2CC(N(Cc3ccc(C(F)(F)F)o3)S(=O)(=O)c3cn(C)cn3)Cc3cc(-c4ccccc4)ccc32)c1 (configuration not stated)"
recorded_metric = "log10 EC50"
value_reported = 3.54


Which value of log10 EC50 has been reported for CCN(CC)C(=O)c1ccc2c(c1)CC(N(CC(=O)NC(C)(C)C)S(=O)(=O)c1cn(C)cn1)CN2Cc1cncn1C (configuration not stated) in the records?
3.41

Which value of log10 EC50 has been reported for CCS(=O)(=O)N1CCC(CN(C2Cc3cc(C#N)ccc3N(Cc3cncn3C)C2)S(=O)(=O)c2ccccn2)CC1 (configuration not stated) in the records?
1.74

Which value of log10 EC50 has been reported for COC(=O)CN(C1Cc2cc(-c3ccccc3)ccc2N(Cc2cn(C)cn2)C1)S(=O)(=O)c1cn(C)cn1 (configuration not stated) in the records?
2.54

Which value of log10 EC50 has been reported for CCCS(=O)(=O)N(Cc1ccccc1F)C1Cc2cc(C#N)ccc2N(Cc2cncn2C)C1 (configuration not stated) in the records?
3.48

Which value of log10 EC50 has been reported for Cn1cncc1CN1CC(N(CCCCCC(N)=O)S(=O)(=O)c2ccccn2)Cc2cc(C#N)ccc21 (configuration not stated) in the records?
2.40

Which value of log10 EC50 has been reported for Cn1cnc(S(=O)(=O)N(CCOc2cccc3c2OCCO3)C2Cc3cc(C#N)ccc3N(Cc3cncn3C)C2)c1 (configuration not stated) in the records?
2.54

Which value of log10 EC50 has been reported for CCS(=O)(=O)N(Cc1ccccc1F)C1Cc2cc(C#N)ccc2N(Cc2cncn2C)C1 (configuration not stated) in the records?
3.32

Which value of log10 EC50 has been reported for COC(=O)c1cccc(CN(C2Cc3cc(C#N)ccc3N(Cc3cncn3C)C2)S(=O)(=O)c2ccccn2)n1 (configuration not stated) in the records?
2.95
